TESTED_ON: Enoyl-acyl-carrier protein reductase (Plasmodium falciparum)
PROTOCOL_SUMMARY: Inhibition of Plasmodium falciparum recombinant enoyl ACP reductase expressed in BL21 (DE3) cells
Type: biochemical
Activity calls are given as the source filed them. The rule behind the calls is not given here.
ENDPOINT_LABEL: Activity

CCCCOc1ccc(/C=C2\SC(=S)N(CCCCCC(=O)OC)C2=O)cc1    inactive
CCOc1ccc(N2C(=O)/C(=C/c3cccc4ccccc34)SC2=S)cc1    inactive
CN1C(=O)/C(=C/c2ccc(-c3ccc(Cl)cc3Cl)o2)SC1=S    inactive
COC(=O)CCCCCN1C(=O)/C(=C/c2cc(OC)c(OC)c(OC)c2)SC1=S    inactive

----------
TESTED_ON: Enoyl-acyl-carrier protein reductase (Plasmodium falciparum)
PROTOCOL_SUMMARY: Inhibition of Plasmodium falciparum recombinant enoyl ACP reductase expressed in BL21 (DE3) cells
ENDPOINT_LABEL: pIC50
Numbers only, as −log10 of the molar value.

Answer for every listed entry: what is its pIC50? The entries follow.
1. CN1C(=O)/C(=C/c2ccc(-c3cccc(Cl)c3)o2)SC1=S
2. O=C(O)CCCN1C(=O)/C(=C/c2cn(-c3ccccc3)nc2-c2ccc(Cl)cc2)SC1=S
3. O=C(Nc1cc(Cl)ccc1O)c1cc(-c2ccc(Cl)cc2)on1
4. Clc1ccc(CNc2nc(SCc3ccc(Cl)cc3)nc3ccccc23)cc1
5. O=C1NC(=S)S/C1=C\c1ccc(-c2cc(Cl)ccc2Cl)o1

A)
[4.52, 4.30, 4.12, 4.28, 5.22]

----------
TESTED_ON: Enoyl-acyl-carrier protein reductase (Plasmodium falciparum)
PROTOCOL_SUMMARY: Inhibition of Plasmodium falciparum recombinant enoyl ACP reductase expressed in BL21 (DE3) cells with respect to NADH
Assay type: cell-based
pKi: −log10 of the molar value.
# binarize pKi: threshold 6 inclusive, high side criterion met, low side criterion not met

O=C1NC(=S)S/C1=C\c1ccc(-c2ccc(Cl)c(Cl)c2)o1    criterion met
O=C1NC(=S)S/C1=C\c1ccc(-c2cccc(Cl)c2Cl)o1    criterion met
COc1cc(/C=C2\SC(=S)N(CCCCCC(=O)O)C2=O)ccc1OCc1ccc(Cl)cc1    criterion not met

Q) Tell me whether pKi is at least 6 here: `O=C1/C(=C/c2ccc(O)c(O)c2)SC(=S)N1c1ccccc1`
A) criterion met

Q) Tell me whether pKi is at least 6 here: `O=C1NC(=S)S/C1=C\c1ccc(-c2cc(Cl)cc(Cl)c2)o1`
A) criterion not met

----------
TESTED_ON: UniProt Q965D5
Sequence (Q965D5 whole entry): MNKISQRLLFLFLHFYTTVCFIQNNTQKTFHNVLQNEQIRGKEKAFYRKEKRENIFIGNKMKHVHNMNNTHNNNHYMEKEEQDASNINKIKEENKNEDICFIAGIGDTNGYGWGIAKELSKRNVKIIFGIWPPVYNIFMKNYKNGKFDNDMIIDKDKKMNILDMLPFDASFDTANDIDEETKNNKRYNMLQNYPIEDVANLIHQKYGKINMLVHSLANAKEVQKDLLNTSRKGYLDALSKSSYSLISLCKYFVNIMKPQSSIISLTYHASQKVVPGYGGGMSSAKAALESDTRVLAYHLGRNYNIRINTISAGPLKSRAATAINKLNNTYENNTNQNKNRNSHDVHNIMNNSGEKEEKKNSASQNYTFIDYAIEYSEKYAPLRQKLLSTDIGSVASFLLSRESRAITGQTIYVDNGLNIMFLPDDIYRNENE
PROTOCOL_SUMMARY: Inhibition of Plasmodium falciparum recombinant enoyl ACP reductase expressed in BL21 (DE3) cells
Task for the reader: assign each of the following compounds its reported IC50.

CCc1ccc(/C=C2\SC(=S)N(CCCCCC(=O)OC)C2=O)cc1    > 100 µM

Answer for every listed entry: what is its IC50? The entries follow.
1. COc1ccc(/C=C2\SC(=S)N(c3ccc(OC)cc3)C2=O)cc1
2. COc1cc(/C=C2\SC(=S)N(CCCCCC(=O)O)C2=O)ccc1OCc1ccc(Cl)cc1
3. CCN1C(=O)/C(=C/c2ccc(N(CC)CC)cc2O)SC1=S
4. COc1ccc(N2C(=O)/C(=C/c3ccc(N(C)C)cc3)SC2=S)cc1
5. O=C1NC(=S)S/C1=C\c1ccc(-c2cccc(Cl)c2Cl)o1

A)
> 100 µM
6.5 µM
> 100 µM
> 100 µM
0.87 µM

----------
TESTED_ON: Enoyl-acyl-carrier protein reductase (Plasmodium falciparum, UniProt Q965D5)
PROTOCOL_SUMMARY: Inhibition of Plasmodium falciparum recombinant enoyl ACP reductase expressed in BL21 (DE3) cells
ENDPOINT_LABEL: IC50

Recorded IC50, per entry:
COC(=O)CCCCCN1C(=O)/C(=C/c2ccc(Cl)cc2)SC1=S    > 100 µM
O=C(O)c1cccc(-c2ccc(/C=C3\SC(=S)N(c4cccc(C(F)(F)F)c4)C3=O)o2)c1    20 µM
O=C(NC1CCCc2ccccc21)c1cc(Sc2cccc(Cl)c2)nc2ccccc12 (centres undefined)    50 µM
O=C1NC(=S)S/C1=C\c1ccc(-c2cc(Cl)cc(Cl)c2)o1    6.1 µM
Oc1cc(Cl)ccc1Oc1ccc(Cl)cc1Cl    0.066 µM

Answer for every listed entry: what is its IC50? The entries follow.
1. O=C(NCCN1CCCc2ccccc21)c1cc(-c2ccc(Cl)s2)nc2ccccc12
2. COc1cc(/C=C2\SC(=S)N(c3ccc(O)cc3)C2=O)ccc1O
3. CC(C)c1ccc(/C=C2\SC(=S)N(CCCCCC(=O)O)C2=O)cc1

A)
1: 60 µM; 2: 0.87 µM; 3: > 100 µM

Q) Quote IC50 reported for `O=C1/C(=C/c2cccc(O)c2)SC(=S)N1c1ccc(F)cc1` please.
A) > 100 µM

----------
TESTED_ON: Enoyl-acyl-carrier protein reductase (Plasmodium falciparum, UniProt Q965D5)
PROTOCOL_SUMMARY: Inhibition of Plasmodium falciparum recombinant enoyl ACP reductase expressed in BL21 (DE3) cells
Assay type: biochemical
Entries whose IC50 is below 30 µM take criterion met; entries at or above 30 µM take criterion not met.

O=C1NC(=S)S/C1=C\c1ccc(-c2cccc(Cl)c2)o1    criterion met
O=C1/C(=C/c2ccco2)SC(=S)N1c1cccc(F)c1    criterion not met
CN(C)CCOC(=O)CCCCCN1C(=O)/C(=C/c2ccccc2)SC1=S    criterion not met
CC(C)(C)c1ccc(CS[n+]2cc3ccccc3c(=O)n2Nc2ccc(Cl)nn2)cc1    criterion not met
COC(=O)CCCCCN1C(=O)/C(=C/c2cccc(O)c2)SC1=S    criterion not met

Q) Just wondering, is IC50 of `COc1ccc(-c2cc(C(=O)Nc3cc(Cl)ccc3O)no2)cc1` below 30 µM?
A) criterion not met

Q) Just wondering, is IC50 of `CCc1nnc(NS(=O)(=O)c2ccc(N3C(=O)c4c(Cl)c(Cl)c(Cl)c(Cl)c4C3=O)cc2)s1` below 30 µM?
A) criterion not met

Q) Just wondering, is IC50 of `Cc1ccc(-c2ccc(/C=C3\SC(=S)NC3=O)o2)cc1Cl` below 30 µM?
A) criterion met

Q) Just wondering, is IC50 of `Cc1ccc(-c2ccc(/C=C3\SC(=S)N(C)C3=O)o2)cc1Cl` below 30 µM?
A) criterion met

Q) Just wondering, is IC50 of `O=C1/C(=C/c2ccc(Cl)cc2Cl)SC(=S)N1c1ccc(O)cc1` below 30 µM?
A) criterion met

----------
Task for the reader: assign each of the following molecules its reported Ki.
TESTED_ON: Enoyl-acyl-carrier protein reductase (Plasmodium falciparum)
PROTOCOL_SUMMARY: Inhibition of Plasmodium falciparum recombinant enoyl ACP reductase expressed in BL21 (DE3) cells with respect to crotonyl CoA
Assay type: cell-based
Numbers only, in nM.

Recorded Ki, per entry:
COc1ccc(/C=C2\SC(=S)N(c3ccc(O)cc3)C2=O)cc1    8700
COc1ccc(N2C(=O)/C(=C/c3ccc(C=O)cc3)SC2=S)cc1    13200
O=C1NC(=S)S/C1=C\c1ccc(-c2cc(Cl)ccc2Cl)o1    2000
O=C1NC(=S)S/C1=C\c1ccc(-c2cccc(Cl)c2Cl)o1    480
Oc1cc(Cl)ccc1Oc1ccc(Cl)cc1Cl    660
O=C1NC(=S)S/C1=C\c1ccc(-c2cccc(Cl)c2)o1    880
COc1cc(/C=C2\SC(=S)N(CCCCCC(=O)O)C2=O)ccc1OCc1ccc(Cl)cc1    5100
O=C1NC(=S)S/C1=C\c1ccc(-c2ccc(Cl)c(Cl)c2)o1    510
O=C1/C(=C/c2ccc(O)c(O)c2)SC(=S)N1c1ccccc1    4.2
CCCCCCOc1ccc(/C=C2\SC(=S)N(CCCCCC(=O)O)C2=O)cc1OC    6600

Please look at the following molecule next.
Q) Recall the reported Ki of `O=C1NC(=S)S/C1=C\c1ccc(-c2cc(Cl)cc(Cl)c2)o1` on Enoyl-acyl-carrier protein reductase (Plasmodium falciparum) and write it down.
A) 4100
